Hello, the source for this data is PubChem BioAssay AID2060600, in case you need it.

System: 996289-038-R-J1-PDC complex spheroid viability;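 further: spheroids exposed to the agents for 7 days before readout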
Experiment: Anticancer human tumor 996289-038-R-J1-PDC patient-derived colon adenocarcinoma cell line growth inhibition [CLK]
Conditions: second compound 1 µM; first compound 1 µM; hits give low values
Excerpt: A high-throughput screen of multi-cell type tumor spheroids was designed to identify active combinations of […] and targeted small molecules. Complex spheroids include a stromal component modeled by human endothelial cells (HUVEC) and fibroblasts modeled by human mesenchymal stem cells (MSCs). […] Compounds. […] If the clinical Cmax for an agent had not been determined, the highest concentration tested was 10 microM. […]
readout: viability, T/C (%)
# number only, unit % dropped from output

Consider the reported viability, T/C for these molecules:
| molecule | viability, T/C / % |
| --- | --- |
| CC1(C)CCC(CN2CCN(c3ccc(C(=O)NS(=O)(=O)c4ccc(NCC5CCOCC5)c([N+](=O)[O-])c4)c(Oc4cnc5[nH]ccc5c4)c3)CC2)=C(c2ccc(Cl)cc2)C1 + CNC(=O)c1ccc(Nc2nc(OC3CCCC3)c3c(-c4ccc5nc(C)oc5c4)c[nH]c3n2)c(OC)c1 | 74.7 |
| CCCS(=O)(=O)Nc1ccc(F)c(C(=O)c2c[nH]c3ncc(-c4ccc(Cl)cc4)cc23)c1F + CN1CCN(c2cc(C(=O)Nc3cc4cc(-c5cnn(C)c5)ccc4cn3)ccn2)CC1 | 7.67 |
| CC1(C)CCC(CN2CCN(c3ccc(C(=O)NS(=O)(=O)c4ccc(NCC5CCOCC5)c([N+](=O)[O-])c4)c(Oc4cnc5[nH]ccc5c4)c3)CC2)=C(c2ccc(Cl)cc2)C1 + CN1CCN(c2cc(C(=O)Nc3cc4cc(-c5cnn(C)c5)ccc4cn3)ccn2)CC1 | 6.11 |
| CC(=O)O[C@H]1C(=O)[C@@]2(C)[C@H]([C@H](OC(=O)c3ccccc3)[C@]3(O)C[C@H](OC(=O)[C@H](O)[C@@H](NC(=O)c4ccccc4)c4ccccc4)C(C)=C1C3(C)C)[C@]1(OC(C)=O)CO[C@@H]1C[C@@H]2O + CNC(=O)c1ccc(Nc2nc(OC3CCCC3)c3c(-c4ccc5nc(C)oc5c4)c[nH]c3n2)c(OC)c1 | 53.5 |
| COc1cccc2c1C(=O)c1c(O)c3c(c(O)c1C2=O)CC(O)(C(=O)CO)CC3OC1CC(N)C(O)C(C)O1 (centres undefined) + CN1CCN(c2cc(C(=O)Nc3cc4cc(-c5cnn(C)c5)ccc4cn3)ccn2)CC1 | 3.89 |

Request: Output reported viability, T/C of the molecule CCc1c2c(nc3ccc(O)cc13)-c1cc3c(c(=O)n1C2)COC(=O)[C@]3(O)CC + CNC(=O)c1ccc(Nc2nc(OC3CCCC3)c3c(-c4ccc5nc(C)oc5c4)c[nH]c3n2)c(OC)c1 on 996289-038-R-J1-PDC complex spheroid viability.
Response: 13.5

Request: Output reported viability, T/C of the molecule C=C(F)C(=O)N1CCN(c2nc(OCC3CCCN3C)nc3c2CCN(c2cccc4cccc(Cl)c24)C3)CC1CC#N (centres undefined) + CNC(=O)c1ccc(Nc2nc(OC3CCCC3)c3c(-c4ccc5nc(C)oc5c4)c[nH]c3n2)c(OC)c1 on 996289-038-R-J1-PDC complex spheroid viability.
Response: 64.7

Request: Output reported viability, T/C of the molecule COc1ccc([C@@H](O)c2cc(-c3ncnc4cc(N5CCOCC5)ccc34)c(F)cc2Cl)nn1 + CN1CCN(c2cc(C(=O)Nc3cc4cc(-c5cnn(C)c5)ccc4cn3)ccn2)CC1 on 996289-038-R-J1-PDC complex spheroid viability.
Response: 4.19

Request: Output reported viability, T/C of the molecule CC(=O)O[C@H]1C(=O)[C@@]2(C)[C@H]([C@H](OC(=O)c3ccccc3)[C@]3(O)C[C@H](OC(=O)[C@H](O)[C@@H](NC(=O)c4ccccc4)c4ccccc4)C(C)=C1C3(C)C)[C@]1(OC(C)=O)CO[C@@H]1C[C@@H]2O + CN1CCN(c2cc(C(=O)Nc3cc4cc(-c5cnn(C)c5)ccc4cn3)ccn2)CC1 on 996289-038-R-J1-PDC complex spheroid viability.
Response: 5.29

Request: Output reported viability, T/C of the molecule Nc1ccn(C2OC(CO)C(O)C2(F)F)c(=O)n1 (centres undefined) + CNC(=O)c1ccc(Nc2nc(OC3CCCC3)c3c(-c4ccc5nc(C)oc5c4)c[nH]c3n2)c(OC)c1 on 996289-038-R-J1-PDC complex spheroid viability.
Response: 50

Request: Output reported viability, T/C of the molecule CC1COCCN1c1cc(C2(S(C)(=N)=O)CC2)nc(-c2ccnc3[nH]ccc23)n1 (centres undefined) + CN1CCN(c2cc(C(=O)Nc3cc4cc(-c5cnn(C)c5)ccc4cn3)ccn2)CC1 on 996289-038-R-J1-PDC complex spheroid viability.
Response: 5.93

Request: Output reported viability, T/C of the molecule CCCS(=O)(=O)Nc1ccc(F)c(C(=O)c2c[nH]c3ncc(-c4ccc(Cl)cc4)cc23)c1F + CNC(=O)c1ccc(Nc2nc(OC3CCCC3)c3c(-c4ccc5nc(C)oc5c4)c[nH]c3n2)c(OC)c1 on 996289-038-R-J1-PDC complex spheroid viability.
Response: 70.6

Request: Output reported viability, T/C of the molecule CCN1CCN(Cc2ccc(Nc3ncc(F)c(-c4cc(F)c5nc(C)n(C(C)C)c5c4)n3)nc2)CC1 + CNC(=O)c1ccc(Nc2nc(OC3CCCC3)c3c(-c4ccc5nc(C)oc5c4)c[nH]c3n2)c(OC)c1 on 996289-038-R-J1-PDC complex spheroid viability.
Response: 77.1

Request: Output reported viability, T/C of the molecule O=C(c1cc(Cc2n[nH]c(=O)c3ccccc23)ccc1F)N1CCN(C(=O)C2CC2)CC1 + CNC(=O)c1ccc(Nc2nc(OC3CCCC3)c3c(-c4ccc5nc(C)oc5c4)c[nH]c3n2)c(OC)c1 on 996289-038-R-J1-PDC complex spheroid viability.
Response: 60.6

Request: Output reported viability, T/C of the molecule COc1c(OCCCN2CCOCC2)ccc2c3n(c(=NC(=O)c4cnc(N)nc4)nc12)CCN3 + CN1CCN(c2cc(C(=O)Nc3cc4cc(-c5cnn(C)c5)ccc4cn3)ccn2)CC1 on 996289-038-R-J1-PDC complex spheroid viability.
Response: 3.21

Request: Output reported viability, T/C of the molecule CC(CO)NC(=O)c1cc(-c2ccc(Cl)cc2)nn(-c2cnn(C)c2)c1=O (centres undefined) + CN1CCN(c2cc(C(=O)Nc3cc4cc(-c5cnn(C)c5)ccc4cn3)ccn2)CC1 on 996289-038-R-J1-PDC complex spheroid viability.
Response: 6.91

Request: Output reported viability, T/C of the molecule Nc1ccccc1NC(=O)c1ccc(CNC(=O)OCc2cccnc2)cc1 + CNC(=O)c1ccc(Nc2nc(OC3CCCC3)c3c(-c4ccc5nc(C)oc5c4)c[nH]c3n2)c(OC)c1 on 996289-038-R-J1-PDC complex spheroid viability.
Response: 59.9

Request: Output reported viability, T/C of the molecule O=C(c1cc(Cc2n[nH]c(=O)c3ccccc23)ccc1F)N1CCN(C(=O)C2CC2)CC1 + CN1CCN(c2cc(C(=O)Nc3cc4cc(-c5cnn(C)c5)ccc4cn3)ccn2)CC1 on 996289-038-R-J1-PDC complex spheroid viability.
Response: 3.94

Request: Output reported viability, T/C of the molecule C=CC(=O)N1CCN(c2nc(=O)n(-c3c(C)ccnc3C(C)C)c3nc(-c4c(O)cccc4F)c(F)cc23)C(C)C1 (centres undefined) + CN1CCN(c2cc(C(=O)Nc3cc4cc(-c5cnn(C)c5)ccc4cn3)ccn2)CC1 on 996289-038-R-J1-PDC complex spheroid viability.
Response: 8.41
